B1: Connector enhancer of kinase suppressor of ras 2, residues 9 to 71; numbered along this chain, Q8WXI2 (parent)
chain: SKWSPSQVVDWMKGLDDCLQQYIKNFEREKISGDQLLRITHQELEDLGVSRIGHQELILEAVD

# Variants of: B1
# experimentSummary: abundance fitness (aPCA) (normalised: wild type 0, dead -1); higher = more abundant; growth selection in yeast, the domain comes from the species named
# experimentalSetup: Homo sapiens
Assign abundance fitness to each entry below.

**Query** Give me measured abundance fitness, please, for this variant: `G53A`
**Result** 0.037

**Query** Read off the recorded abundance fitness for `Q20I`
**Result** -0.247

**Query** Name the recorded abundance fitness of the item `S32V` in your answer.
**Result** -0.475

**Query** Please give the documented abundance fitness of `E45D`
**Result** -0.167

**Query** Give me measured abundance fitness, please, for this variant: `G14Y`
**Result** -1.04

**Query** Complete the entry with abundance fitness for `L47F`
**Result** -0.612

**Query** Find the measured abundance fitness of `L47I` and report it.
**Result** 0.003

**Query** Given the variant `R51D` , write its reported abundance fitness.
**Result** 0.081

**Query** Give me measured abundance fitness, please, for this variant: `K30S`
**Result** -0.087

**Query** Query abundance fitness for `Q35W`
**Result** -0.523

**Query** State its abundance fitness for this variant: `S32T`
**Result** 0.022
